Measured GI50 values are reported for all entries that follow.
Test system: MDA-N
protocol-notes: NCI tumour cell line growth inhibition, 48 h
Active and inactive are the calls of the source. No stated cut-off is given here; in the data, active = GI50 up to about 1.1 µM and inactive = higher. Where a SMILES comes first, the peptide text is derived from it. The star is where a group is joined. Boc = CC(C)(C)OC(=O)*

C=C(C)[C@@H]1CC[C@@]2(C)[C@H]1[C@H]1CCC3[C@@]4(C)CC[C@H](O)C(C)(C)[C@@H]4CC[C@@]3(C)[C@]1(C)C[C@@H]2O (some centres undefined)
43 µM (inactive)
C/C(=N/NC(N)=S)c1ccc[nH]1
> 100 µM (inactive)
O=C(Nc1ccc(Cl)cc1)c1cc(S(=O)(=O)Nc2n[nH]c(Nc3ccc4ccccc4c3)n2)c(SSc2cc(Cl)c(C(=O)Nc3ccc(Cl)cc3)cc2S(=O)(=O)Nc2n[nH]c(Nc3ccc4ccccc4c3)n2)cc1Cl
32.4 µM (inactive)
Cc1ccc(S(=O)(=O)N/N=C2/CC3CCC4CC2CC34)cc1 (centres undefined)
> 100 µM (inactive)
O=C1Oc2ccc([N+](=O)[O-])cc2N/C1=C\C(=O)c1ccccc1
> 100 µM (inactive)
C/C=C1/CC(C(=O)OC)N(C(=O)OCc2ccccc2)C1=S (centres undefined)
> 100 µM (inactive)

The molecule c1ccc(COc2ncccc2C2SCCCS2)cc1 showed GI50 equal to > 100 µM (inactive)

The molecule CC(C)(C)OC(=O)CC(NC(=O)OC(C)(C)C)C(=O)N[C@@H]1CCCC[C@H]1C(=O)OCc1ccccc1 (some centres undefined) showed GI50 equal to 32.1 µM (inactive)

The molecule CC(=O)N1C(Nc2cnc3ccccc3c2)CCN1c1ccccc1 (centres undefined) showed GI50 equal to > 10 µM (inactive)

The molecule COc1ccc2nc(-c3cccc(N(C)C)c3)cc(O)c2c1 showed GI50 equal to 0.0608 µM (active)

The molecule COC(=O)CNC(=O)C(Cc1ccccc1)NC(=O)C(CCSC)NC(=O)C(Cc1ccc(O)cc1)NC(=O)OC(C)(C)C (centres undefined) (Boc-YMFG-OMe; configuration not given here) showed GI50 equal to 33.3 µM (inactive)

The molecule CN(C)CCCNC(=O)c1cc2/c(=C\c3ccc(N(C)C)cc3)c3ccccc3n2[n+]1C showed GI50 equal to 24.4 µM (inactive)

The molecule O=C(O)c1cc2ccccc2c(O)c1O showed GI50 equal to 2.14 µM (inactive)

The molecule O=[N+]([O-])/C(Cl)=C/C(=C1/Nc2ccccc2O1)[N+](=O)[O-] showed GI50 equal to 18.5 µM (inactive)

The molecule CC(=O)N(C(C)=O)n1c(-c2ccccc2)n[nH]c1=O showed GI50 equal to > 100 µM (inactive)

The molecule N=c1oc2cc(O)ccc2cc1C(=O)NCc1ccccc1 showed GI50 equal to 19.3 µM (inactive)

The molecule Cc1ccc(NC2=NCCO2)c2c1CCC2 showed GI50 equal to 17.6 µM (inactive)

The molecule Nc1c(S(=O)(=O)O)cc(Nc2cccc(S(N)(=O)=O)c2)c2c1C(=O)c1ccccc1C2=O showed GI50 equal to 20.3 µM (inactive)

The molecule O=C(O)c1cc2ccccc2c(/N=N/c2ccc(S(=O)(=O)Nc3nccs3)cc2)c1O showed GI50 equal to > 100 µM (inactive)

----------
Test system: K562
protocol-notes: NCI tumour cell line growth inhibition, 48 h
Calls of active or inactive are those of the source. Rule as the data show it: active = GI50 up to about 1.1 µM and inactive = higher.
Your answer must be one of the following: 1.0 for active, 0.0 for inactive

C=C[C@@]1(C)CC[C@@H]2[C@@]3(C1)O[C@H]3CC1[C@](C)(C(=O)OC)CCC[C@@]12C (some centres undefined)
0.0

Request: Returns: the outcome recorded for Cn1c(SCc2ccc([N+](=O)[O-])cc2)nnc1C12CC3CC(CC(C3)C1)C2 in this assay.
Response: 0.0

Request: Returns: the outcome recorded for COC(=O)c1onc(C2OC(C)(C)OC2C(O)COC(c2ccccc2)(c2ccccc2)c2ccccc2)c1C(=O)OC (centres undefined) in this assay.
Response: 0.0

Request: Returns: the outcome recorded for COc1ccc(/C=C2\CCC(C)C3=C2NC(=S)NC3c2ccc(OC)c(OC)c2)cc1OC (centres undefined) in this assay.
Response: 0.0

Request: Returns: the outcome recorded for Cc1cc(S(=O)(=O)N/C(=C(\C#N)C(=O)c2ccc(Cl)cc2)[n+]2ccc(N(C)C)cc2)c([S-])cc1Cl in this assay.
Response: 0.0

Request: Returns: the outcome recorded for Cc1cccc(/C=N/NC(=S)Nc2ccc(Cl)cc2)n1 in this assay.
Response: 1.0

Request: Returns: the outcome recorded for CNC(=O)N(CCC#N)CCN(CCN(C(=O)NC)c1ccccc1)C(=O)NC in this assay.
Response: 0.0

Request: Returns: the outcome recorded for Cc1noc2cccc(O)c12 in this assay.
Response: 0.0

Request: Returns: the outcome recorded for CCOC(=O)c1nc2ccc(C(F)(F)F)cc2nc1NCc1ccc(OC)cc1 in this assay.
Response: 0.0
